- Test system: SK-OV-3 (ovarian cancer cell)
- method.description: Solid tumor cell growth inhibition, MTT, 72 h (Example 7)
- Type: cell-based
- measurement.context: Homo sapiens
Class boundaries, taken from values of IC50, are as follows: b0 = under 2 µg/mL, b1 = from 2 µg/mL up to 7 µg/mL, b2 = 7 µg/mL and over

Form field 'band' for COc1ccc2cc1Oc1ccc(cc1)C[C@H]1c3cc(c(OC)cc3CCN1C)Oc1c(OC)c(OC)c(COC(=O)c3cccs3)c3c1[C@H](C2)N(C)CC3
b2

Repeat for the following compound: COc1ccc2cc1Oc1ccc(cc1)C[C@H]1c3cc(c(OC)cc3CCN1C)Oc1c(OC)c(OC)c(CN3CCCCC3)c3c1[C@H](C2)N(C)CC3
b1

Repeat for the following compound: COc1ccc2cc1Oc1ccc(cc1)C[C@H]1c3cc(c(OC)cc3CCN1C)Oc1c(OC)c(OC)c(COCc3cccnc3)c3c1[C@H](C2)N(C)CC3
b2

Repeat for the following compound: COc1ccc2cc1Oc1ccc(cc1)C[C@H]1c3cc(c(OC)cc3CCN1C)Oc1c(OC)c(OC)c(CN3CCCN(C)CC3)c3c1[C@H](C2)N(C)CC3
b1

Repeat for the following compound: CNCc1c2c3c(c(OC)c1OC)Oc1cc4c(cc1OC)CCN(C)[C@H]4Cc1ccc(cc1)Oc1cc(ccc1OC)C[C@@H]3N(C)CC2
b0

Repeat for the following compound: COc1ccc2cc1Oc1ccc(cc1)C[C@H]1c3cc(c(OC)cc3CCN1C)Oc1c(OC)c(OC)c(COCCOc3ccccc3)c3c1[C@H](C2)N(C)CC3
b0

Repeat for the following compound: COc1ccc2cc1Oc1ccc(cc1)C[C@H]1c3cc(c(OC)cc3CCN1C)Oc1c(OC)c(OC)c(CN3CCN(C)CC3)c3c1[C@H](C2)N(C)CC3
b0

Repeat for the following compound: COc1ccc2cc1Oc1ccc(cc1)C[C@H]1c3cc(c(OC)cc3CCN1C)Oc1c(OC)c(OC)c(CN3CCC(C#N)CC3)c3c1[C@H](C2)N(C)CC3
b2

Repeat for the following compound: COc1ccc2cc1Oc1ccc(cc1)C[C@H]1c3cc(c(OC)cc3CCN1C)Oc1c(OC)c(OC)c(CN3CCCC(O)C3)c3c1[C@H](C2)N(C)CC3 (stereo partly drawn)
b1

###

- Tested on: PANC-1 (pancreatic cancer)
- method.description: Solid tumor cell growth inhibition, MTT, 72 h (Example 7)
- Format: cell-based, human
- measurement.context: Homo sapiens; 72 h, MTT, PANC-1
So basically: is IC90 under 7 µg/mL? Then T. Not under? Then F.

Is it true that IC90 reported for COc1ccc2cc1Oc1ccc(cc1)C[C@H]1c3cc(c(OC)cc3CCN1C)Oc1c(OC)c(OC)c(CSc3ccccc3)c3c1[C@H](C2)N(C)CC3 is less than 7 µg/mL?
T

Repeat for the following molecule: COc1ccc2cc1Oc1ccc(cc1)C[C@H]1c3cc(c(OC)cc3CCN1C)Oc1c(OC)c(OC)c(CN)c3c1[C@H](C2)N(C)CC3
F

Repeat for the following molecule: COCCCNCc1c2c3c(c(OC)c1OC)Oc1cc4c(cc1OC)CCN(C)[C@H]4Cc1ccc(cc1)Oc1cc(ccc1OC)C[C@@H]3N(C)CC2
T

Repeat for the following molecule: CCOCc1c2c3c(c(OC)c1OC)Oc1cc4c(cc1OC)CCN(C)[C@H]4Cc1ccc(cc1)Oc1cc(ccc1OC)C[C@@H]3N(C)CC2
F

Repeat for the following molecule: COc1ccc2cc1Oc1ccc(cc1)C[C@H]1c3cc(c(OC)cc3CCN1C)Oc1c(OC)c(OC)c(COCC3CCOC3)c3c1[C@H](C2)N(C)CC3 (stereo partly drawn)
F

###

Could you please report measured IC50 for the items listed next?
- Tested on: RPMI8226 (multiple myeloma)
- method.description: Multiple myeloma cell growth inhibition, MTT, 72 h (Example 6)
- Format: cell-based, human
- measurement.context: Homo sapiens, RPMI-8226; 72 h, MTT, RPMI8226
The reply should be a number in µg/mL, with the unit left off.

Bench note: what IC50 did COc1ccc2cc1Oc1ccc(cc1)C[C@H]1c3cc(c(OC)cc3CCN1C)Oc1c(OC)c(OC)c(CN3CCC(O)CC3)c3c1[C@H](C2)N(C)CC3 show?
0.28

Repeat for the following compound: COc1ccc2cc1Oc1ccc(cc1)C[C@H]1c3cc(c(OC)cc3CCN1C)Oc1c(OC)c(OC)c(CNc3nccs3)c3c1[C@H](C2)N(C)CC3
0.06

Repeat for the following compound: COc1ccc2cc1Oc1ccc(cc1)C[C@H]1c3cc(c(OC)cc3CCN1C)Oc1c(OC)c(OC)c(COCc3cccnc3)c3c1[C@H](C2)N(C)CC3
0.26

###

- Tested on: Hela (human cervical cancer cell)
- method.description: Solid tumor cell growth inhibition, MTT, 72 h (Example 7)
- Type: cell-based
- measurement.context: Homo sapiens; 72 h, MTT, Hela
So basically: is IC90 under 4 mg/L? Then Satisfied. Not under? Then Not satisfied.

Is it true that IC90 reported for COc1ccc2cc1Oc1ccc(cc1)C[C@H]1c3cc(c(OC)cc3CCN1C)Oc1c(OC)c(OC)c(CN3CCCN(C)CC3)c3c1[C@H](C2)N(C)CC3 [BS-TE-356] is less than 4 mg/L?
Not satisfied

Repeat for the following compound: COCC(C)OCc1c2c3c(c(OC)c1OC)Oc1cc4c(cc1OC)CCN(C)[C@H]4Cc1ccc(cc1)Oc1cc(ccc1OC)C[C@@H]3N(C)CC2 (stereo partly drawn) [BS-TE-406]
Satisfied

Repeat for the following compound: COc1ccc2cc1Oc1ccc(cc1)C[C@H]1c3cc(c(OC)cc3CCN1C)Oc1c(OC)c(OC)c(CN3CCSCC3)c3c1[C@H](C2)N(C)CC3 [BS-TE-328]
Not satisfied

Repeat for the following compound: COc1ccc2cc1Oc1ccc(cc1)C[C@H]1c3cc(c(OC)cc3CCN1C)Oc1c(OC)c(OC)c(COCCOc3ccccc3)c3c1[C@H](C2)N(C)CC3 [BS-TE-402]
Satisfied

Repeat for the following compound: COc1ccc2cc1Oc1ccc(cc1)C[C@H]1c3cc(c(OC)cc3CCN1C)Oc1c(OC)c(OC)c(CN3CCN(C)CC3)c3c1[C@H](C2)N(C)CC3 [BS-TE-360]
Not satisfied

Repeat for the following compound: COc1ccc2cc1Oc1ccc(cc1)C[C@H]1c3cc(c(OC)cc3CCN1C)Oc1c(OC)c(OC)c(CN3CCN(C(C)C)CC3)c3c1[C@H](C2)N(C)CC3 [BS-TE-333]
Not satisfied

Repeat for the following compound: COc1ccc2cc1Oc1ccc(cc1)C[C@H]1c3cc(c(OC)cc3CCN1C)Oc1c(OC)c(OC)c(CN3CCCC(O)C3)c3c1[C@H](C2)N(C)CC3 (stereo partly drawn) [BS-TE-321]
Not satisfied

Repeat for the following compound: COc1ccc2cc1Oc1ccc(cc1)C[C@H]1c3cc(c(OC)cc3CCN1C)Oc1c(OC)c(OC)c(COC(=O)c3cccs3)c3c1[C@H](C2)N(C)CC3 [BS-TE-215]
Not satisfied

Repeat for the following compound: COc1ccc2cc1Oc1ccc(cc1)C[C@H]1c3cc(c(OC)cc3CCN1C)Oc1c(OC)c(OC)c(CN3CCCC(CO)C3)c3c1[C@H](C2)N(C)CC3 (stereo partly drawn) [BS-TE-351]
Satisfied

Repeat for the following compound: CNCc1c2c3c(c(OC)c1OC)Oc1cc4c(cc1OC)CCN(C)[C@H]4Cc1ccc(cc1)Oc1cc(ccc1OC)C[C@@H]3N(C)CC2 [BS-TE-326]
Satisfied

###

- Tested on: CaES-17 (esophageal cancer cell)
- method.description: Solid tumor cell growth inhibition, MTT, 72 h (Example 7)
- Type: cell-based, human
- measurement.context: Homo sapiens, CaEs17; 72 h, MTT, CAES-17
Could you please report measured IC50 for the items listed next?
The reply should be a number in µg/mL, with the unit left off.

Bench note: what IC50 did COc1ccc2cc1Oc1ccc(cc1)C[C@H]1c3cc(c(OC)cc3CCN1C)Oc1c(OC)c(OC)c(CNC(C)C)c3c1[C@H](C2)N(C)CC3 show?
4.05

Repeat for the following compound: COc1ccc2cc1Oc1ccc(cc1)C[C@H]1c3cc(c(OC)cc3CCN1C)Oc1c(OC)c(OC)c(COCc3cccnc3)c3c1[C@H](C2)N(C)CC3
2.76

Repeat for the following compound: COc1ccc2cc1Oc1ccc(cc1)C[C@H]1c3cc(c(OC)cc3CCN1C)Oc1c(OC)c(OC)cc3c1[C@H](C2)N(C)CC3 [TTD, reference compound]
8.34

###

- Tested on: CaES-17 (esophageal cancer cell)
- method.description: Solid tumor cell growth inhibition, MTT, 72 h (Example 7)
- Type: cell-based, human
- measurement.context: Homo sapiens, CaEs17; 72 h, MTT, CAES-17
Could you please report measured IC50 for the items listed next?
The reply should be a number in mg/L, with the unit left off.

Could you share what IC50 was measured for COc1ccc2cc1Oc1ccc(cc1)C[C@H]1c3cc(c(OC)cc3CCN1C)Oc1c(OC)c(OC)c(CN3CCCC(CO)C3)c3c1[C@H](C2)N(C)CC3 (stereo partly drawn) , tested on CaES-17 (esophageal cancer cell)?
1.38

Repeat for the following compound: COc1ccc2cc1Oc1ccc(cc1)C[C@H]1c3cc(c(OC)cc3CCN1C)Oc1c(OC)c(OC)c(CN3CCCC(C)C3)c3c1[C@H](C2)N(C)CC3 (stereo partly drawn)
1.29

Repeat for the following compound: COc1ccc2cc1Oc1ccc(cc1)C[C@H]1c3cc(c(OC)cc3CCN1C)Oc1c(OC)c(OC)c(CN3CCCN(C)CC3)c3c1[C@H](C2)N(C)CC3
1

Repeat for the following compound: COc1ccc2cc1Oc1ccc(cc1)C[C@H]1c3cc(c(OC)cc3CCN1C)Oc1c(OC)c(OC)c(COC(=O)c3ccco3)c3c1[C@H](C2)N(C)CC3
5.36

Repeat for the following compound: COc1ccc2cc1Oc1ccc(cc1)C[C@H]1c3cc(c(OC)cc3CCN1C)Oc1c(OC)c(OC)c(CNCc3ccco3)c3c1[C@H](C2)N(C)CC3
1.03

Repeat for the following compound: COc1ccc2cc1Oc1ccc(cc1)C[C@H]1c3cc(c(OC)cc3CCN1C)Oc1c(OC)c(OC)c(CN3CCCC3)c3c1[C@H](C2)N(C)CC3
1.1
